Hi there, I'd appreciate the recorded MIC (CLSI Ref) for every entry that follows.
Test system: E. coli
Test: CLSI overnight reference method MIC of antimicrobials against E. coli strains
Format: cell-based
Settings: E. coli strain Clinical Sample 7; unit assumed

Exam item: Give the measured MIC (CLSI Ref) of C[C@H]1[C@H](NC(=O)/C(=N\OC(C)(C)C(=O)O)c2csc(N)n2)C(=O)N1S(=O)(=O)O [ATM, Aztreonam] .
Marked response: < 0.25 µg/mL

Exam item: Entry C[C@@H](O)[C@H]1C(=O)N2C(C(=O)O)=C(SCCN=CN)C[C@H]12 [IPM, Imipinem] has what MIC (CLSI Ref)?
Marked response: < 0.12 µg/mL

Exam item: Which MIC (CLSI Ref) value is on record for CO/N=C(\C(=O)N[C@@H]1C(=O)N2C(C(=O)O)=C(CSc3nc(=O)c(=O)[nH]n3C)CS[C@H]12)c1csc(N)n1 [CRO, Ceftriaxone] ?
Marked response: < 0.12 µg/mL

Exam item: Find the recorded MIC (CLSI Ref) belonging to C[C@H]1COc2c(N3CCN(C)CC3)c(F)cc3c(=O)c(C(=O)O)cn1c23 [LVX, Levofloxacin] and report it.
Marked response: < 0.06 µg/mL

Exam item: Please give the measured MIC (CLSI Ref) for this molecule: C[C@@H](O)[C@H]1C(=O)N2C(C(=O)O)=C(S[C@@H]3CN[C@H](C(=O)N(C)C)C3)[C@H](C)[C@H]12 [MEM, Meropenem]
Marked response: < 0.06 µg/mL

Exam item: Item under review: CC1(C)S[C@@H]2[C@H](NC(=O)[C@H](N)c3ccccc3)C(=O)N2[C@H]1C(=O)O [AMP, Ampicillin] . Reported MIC (CLSI Ref)?
Marked response: > 32 µg/mL

----------
Tested on: E. coli
Experiment: CLSI overnight reference method MIC of antimicrobials against E. coli strains
Format: cell-based
Conditions: E. coli strain Clinical Sample 8; unit assumed
quantity: MIC (CLSI Ref)

Exam item: Which MIC (CLSI Ref) value is on record for CC(C)(O/N=C(\C(=O)N[C@@H]1C(=O)N2C(C(=O)[O-])=C(C[n+]3ccccc3)CS[C@H]12)c1csc(N)n1)C(=O)O [CAZ, Ceftazidime] ?
Marked response: > 32 µg/mL

Exam item: Please report the recorded MIC (CLSI Ref) for CC1(C)S[C@@H]2[C@H](NC(=O)[C@H](N)c3ccccc3)C(=O)N2[C@H]1C(=O)O [AMP, Ampicillin] .
Marked response: > 32 µg/mL

Exam item: // lookup MIC (CLSI Ref) for C[C@@H](O)[C@H]1C(=O)N2C(C(=O)O)=C(S[C@@H]3CN[C@H](C(=O)N(C)C)C3)[C@H](C)[C@H]12 [MEM, Meropenem]
Marked response: < 0.06 µg/mL

----------
Test system: E. coli
Experiment: CLSI overnight reference method MIC of antimicrobials against E. coli strains
Format: cell-based
Details: E. coli strain Clinical Sample 1; unit assumed
quantity: MIC (CLSI Ref)

Exam item: # query: MIC (CLSI Ref) | item `C[C@H]1[C@H](NC(=O)/C(=N\OC(C)(C)C(=O)O)c2csc(N)n2)C(=O)N1S(=O)(=O)O` | system: E. coli
Marked response: < 0.25 µg/mL

Exam item: // lookup MIC (CLSI Ref) | system=E. coli | key= `CO/N=C(\C(=O)N[C@@H]1C(=O)N2C(C(=O)O)=C(CSc3nc(=O)c(=O)[nH]n3C)CS[C@H]12)c1csc(N)n1`
Marked response: < 0.12 µg/mL

Exam item: API: value(readout= MIC (CLSI Ref), system= E. coli, query= `C[C@H]1COc2c(N3CCN(C)CC3)c(F)cc3c(=O)c(C(=O)O)cn1c23` )
Marked response: < 0.06 µg/mL

----------
Test system: E. coli
Experiment: CLSI overnight reference method MIC of antimicrobials against E. coli strains
Format: cell-based
Settings: E. coli strain BEI 4.097; unit assumed
Consider the following compounds; for each one, report its MIC (CLSI Ref).

Exam item: May I ask what MIC (CLSI Ref) has been recorded for CO/N=C(\C(=O)N[C@@H]1C(=O)N2C(C(=O)O)=C(CSc3nc(=O)c(=O)[nH]n3C)CS[C@H]12)c1csc(N)n1 [CRO, Ceftriaxone] ?
Marked response: < 0.12 mg/L

Exam item: Endpoint output: MIC (CLSI Ref) of C[C@H]1COc2c(N3CCN(C)CC3)c(F)cc3c(=O)c(C(=O)O)cn1c23 [LVX, Levofloxacin] . Value?
Marked response: < 0.06 mg/L

Exam item: Item under review: C[C@H]1[C@H](NC(=O)/C(=N\OC(C)(C)C(=O)O)c2csc(N)n2)C(=O)N1S(=O)(=O)O [ATM, Aztreonam] . Reported MIC (CLSI Ref)?
Marked response: < 0.25 mg/L
